Dear all, this message contains Ki results, target or system Alpha-1B adrenergic receptor (Homo sapiens).
I only need the number, in nM, no unit after it.

Some molecules with recorded Ki:
## Input Look up Ki: CCOc1ccccc1OCCN[C@H](C)Cc1ccc(OC)c(S(N)(=O)=O)c1 (stereo in doubt; form 1) [TAMSULOSIN]
## Output 1.26

## Input Field request: Ki | item: CC(C)(Cc1c[nH]c2ccc(Cl)cc12)NCCOc1ccccc1OCC1CC1
## Output 15.8

## Input Ki for CCOc1ccccc1OCCN[C@H](C)Cc1ccc(OC)c(S(N)(=O)=O)c1 (stereo in doubt; form 3) [TAMSULOSIN] ?
## Output 100

## Input # lookup: Ki of O=C(NC1CCN(CCc2c[nH]c3ccccc23)CC1)c1ccccc1 [INDORAMIN]
## Output 39.8

## Input Fill in: Ki of CCOc1ccccc1OCCN[C@H](C)Cc1ccc(OC)c(S(N)(=O)=O)c1 (stereo in doubt; form 2) [TAMSULOSIN] is ___
## Output 1.26

## Input I am curious: what Ki value has been reported for CCC1=C(C(=O)NCCCN2CCC(c3ccccc3)(c3ccccc3)CC2)C(c2ccc([N+](=O)[O-])cc2)/C(=C(\O)OC)C(C)=N1 (stereo not given) ?
## Output 148

New cases:
## Input What value of Ki has been recorded for this entry: COc1cc2nc(N(C)CCCNC(=O)C3CCCO3)nc(N)c2cc1OC (stereo not given) [ALFUZOSIN]
## Output 10

## Input Which measured Ki value corresponds to COc1ccc(CCNCC2CCc3ccccc3C2)cc1 (stereo not given) ?
## Output 39.8

## Input Param item = C=Cc1sc2ccc(Cl)c3c2c1CN(C)CC3 ; retrieve measured Ki.
## Output 20

## Input Recorded Ki for COc1ccccc1N1CCN(CCCNc2c(C)c(=O)n(C)c(=O)n2C)CC1 , please?
## Output 39.8

The origin of these recorded values is ChEMBL document CHEMBL1129998.
